Exercise: for every item that follows, state its recorded IC50.
- TARGET ENTITY: Polyadenylate-binding protein 1 (Homo sapiens)
- Sequence (P11940 whole entry, the tested form may be a part): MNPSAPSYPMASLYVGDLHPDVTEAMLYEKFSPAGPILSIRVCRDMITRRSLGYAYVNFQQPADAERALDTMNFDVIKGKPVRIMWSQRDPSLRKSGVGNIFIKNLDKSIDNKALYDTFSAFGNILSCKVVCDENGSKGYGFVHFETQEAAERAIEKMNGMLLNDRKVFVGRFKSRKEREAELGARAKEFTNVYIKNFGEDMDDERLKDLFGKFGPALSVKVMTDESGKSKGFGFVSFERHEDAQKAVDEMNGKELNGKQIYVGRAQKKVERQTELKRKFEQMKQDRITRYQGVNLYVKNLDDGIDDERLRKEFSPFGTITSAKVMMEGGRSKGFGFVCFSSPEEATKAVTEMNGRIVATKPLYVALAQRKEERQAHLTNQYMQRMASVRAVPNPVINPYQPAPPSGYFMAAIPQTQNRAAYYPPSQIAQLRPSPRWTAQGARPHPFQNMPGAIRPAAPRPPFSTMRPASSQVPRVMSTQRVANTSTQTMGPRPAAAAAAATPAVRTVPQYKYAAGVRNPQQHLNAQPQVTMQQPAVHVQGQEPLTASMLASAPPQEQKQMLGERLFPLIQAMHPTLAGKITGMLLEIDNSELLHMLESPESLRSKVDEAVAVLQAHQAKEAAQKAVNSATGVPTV
- PROTOCOL NOTES: MLLE domain peptide-binding blockers, IC50 – biochemical, fluorescence polarization, FITC-PAM2 peptide, dose response (AID 602259)
- Assay type: functional
- COND: read-out: IC50_Mean
Activity calls are given as the source filed them.

**Q:** So what does the record say about IC50 for "NC(=O)c1cccc2c1-c1ccccc1/C2=N/NC(N)=S" ?
**A:** > 66 µM (inactive)

**Q:** Same again, this time with "COC1=CC(=NCl)C=CC1=NCl"
**A:** 49.9 µM (inactive)

**Q:** Queued: "Cc1cc(C)c2c(=O)c(C#N)coc2c1"
**A:** > 66 µM (inactive)

**Q:** Next entry: CC(C)C1OC2c3cccc4cccc(c34)C2N1c1ccccc1 (stereo not drawn)
**A:** > 66 µM (inactive)

**Q:** And for "COc1ccccc1N1CCN(/N=C/c2c(C)nn(-c3ccccc3)c2C)CC1" ?
**A:** > 66 µM (inactive)

**Q:** Do the same for "Oc1cccc(C(=S)N2CCCCC2)c1" please
**A:** > 66 µM (inactive)

**Q:** Moving on to "O=C1NN(CCO)C(=S)Nc2ccccc21"
**A:** > 66 µM (inactive)

**Q:** Similarly, "Nc1cccc2c1C(=O)N(Cc1nnc(-c3ccccc3Br)o1)C2=O" ?
**A:** 48.1 µM (inactive)

###

Please go through the items and note down their AC50.
- TARGET ENTITY: Cytochrome P450 3A4 (Homo sapiens, UniProt P08684);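 note: CYP3A4 tested as one member of a cytochrome P450 panel screen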
- Sequence (P08684 whole entry): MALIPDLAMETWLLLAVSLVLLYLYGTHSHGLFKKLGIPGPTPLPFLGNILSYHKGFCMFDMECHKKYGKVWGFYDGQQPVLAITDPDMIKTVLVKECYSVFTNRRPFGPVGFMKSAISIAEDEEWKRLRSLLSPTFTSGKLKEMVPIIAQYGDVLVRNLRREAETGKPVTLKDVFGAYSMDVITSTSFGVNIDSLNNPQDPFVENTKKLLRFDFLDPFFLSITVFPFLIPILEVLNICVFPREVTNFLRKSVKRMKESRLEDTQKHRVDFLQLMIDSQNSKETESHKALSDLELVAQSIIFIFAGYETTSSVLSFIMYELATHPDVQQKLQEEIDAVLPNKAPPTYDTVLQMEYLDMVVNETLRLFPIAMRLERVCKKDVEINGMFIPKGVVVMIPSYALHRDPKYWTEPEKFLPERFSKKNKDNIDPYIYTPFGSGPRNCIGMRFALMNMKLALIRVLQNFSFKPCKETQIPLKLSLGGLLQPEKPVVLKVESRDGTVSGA

**Q:** I would be grateful if you could share the reported AC50 for "Cn1c(=O)c(-c2cccs2)nc2cnc(N3CCNCC3)nc21" .
**A:** 25.1 µM (inconclusive)

**Q:** Could you do the same for COc1ccc(/C=N\NC(=O)C2C(=O)NCC2c2ccccc2)cc1O (stereo not drawn) , please?
**A:** 39.8 µM (inconclusive)

**Q:** Please do the same for "Cc1cnc(CNc2nc(-c3ccccc3C)nc3ccccc23)cn1" as well.
**A:** 10 µM (inconclusive)

**Q:** Moving on to the next compound: "COc1ccc(NC(=O)N2CCC3(CC2)CCN(C(=O)c2csnn2)CC3)cc1"
**A:** 12.6 µM (inconclusive)

**Q:** Repeat with "CN1CCN(c2ncc3ncc(=O)n(CCc4ccccc4)c3n2)CC1"
**A:** 15.8 µM (inconclusive)

**Q:** Likewise for "FC(F)(F)c1cccc(-c2nc3nc(Cl)c(Cl)nc3[nH]2)c1" ?
**A:** 5.01 µM (inconclusive)

**Q:** Follow-up item: "Cc1nc2ccccn2c1C(=O)CSc1ccccc1Cl"
**A:** 12.6 µM (inconclusive)

**Q:** Same again, this time with "Cc1ccc(SCc2cc(=O)[nH]c(NC(N)=Nc3ccc(C)c(C)c3)n2)cc1"
**A:** 7.08 µM (inconclusive)

**Q:** Further, for "Cc1ccccc1C(=O)NN(C)c1nc2ccccc2nc1C(F)(F)F" ?
**A:** 7.08 µM (inconclusive)

**Q:** Entry to check: "Cc1ccc(C(=O)NCCNC(=O)CN2CCOCC2)cc1"
**A:** 28.2 µM (inconclusive)

**Q:** Same read-out for "COc1cc2c(CCNC(C)=O)c[nH]c2cc1O" ?
**A:** 15.8 µM (inconclusive)

**Q:** Can you check "COc1ccccc1CN1CC2(CCN(C(=O)c3cnccn3)CC2)C1" next?
**A:** 20 µM (inconclusive)

**Q:** Now the compound CC(C)C(NC(=O)C1CCCCC1)C(=O)NCc1ccccn1 (stereo not drawn)
**A:** 15.8 µM (inconclusive)

**Q:** Consider next the compound "Cc1ccccc1OCC(=O)NC(=S)Nc1ccc(N2CCOCC2)c(Cl)c1" in the same way.
**A:** 14.1 µM (inconclusive)

**Q:** Again, but for "CC1(C)CC(=O)C(/C=N/CCN2CCN(C(=S)Nc3ccc(F)cc3)CC2)=C(O)C1"
**A:** 25.1 µM (inconclusive)

**Q:** Please answer likewise for "COc1ccccc1CNC(=O)Cn1nnc(-c2ccncc2)n1"
**A:** 3.16 µM (inconclusive)

**Q:** Again, but for "Cn1cccc1C(=O)N1CCC[C@@]2(CCN(Cc3ccccc3)C2)C1"
**A:** 5.01 µM (inconclusive)

**Q:** Entry to check: "CCC(=O)N(C)/C=C1\Sc2ccccc2C1=O"
**A:** 14.1 µM (inconclusive)
